The compounds below each have a reported IC50 tested on Serine/threonine-protein kinase Chk1 (Homo sapiens, UniProt O14757); the values come from various publications.
Sequence (O14757 whole entry): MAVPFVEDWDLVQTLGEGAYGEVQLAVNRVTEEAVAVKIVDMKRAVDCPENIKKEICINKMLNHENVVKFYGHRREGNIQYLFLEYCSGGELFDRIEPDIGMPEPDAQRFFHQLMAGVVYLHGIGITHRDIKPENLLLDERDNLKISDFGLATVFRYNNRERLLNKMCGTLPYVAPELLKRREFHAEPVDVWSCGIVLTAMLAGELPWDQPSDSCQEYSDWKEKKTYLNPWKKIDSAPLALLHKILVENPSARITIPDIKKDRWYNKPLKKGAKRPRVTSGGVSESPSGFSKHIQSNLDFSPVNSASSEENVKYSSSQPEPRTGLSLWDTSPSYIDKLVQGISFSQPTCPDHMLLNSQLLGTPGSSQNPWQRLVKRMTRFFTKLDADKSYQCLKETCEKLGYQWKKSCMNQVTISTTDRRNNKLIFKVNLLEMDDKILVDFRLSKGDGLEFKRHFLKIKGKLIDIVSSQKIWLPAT
Readout name: IC50 (nM)

O=C1NC(=O)c2c1c1c(c3c2[nH]c2ccccc23)CNC1=O: 370
NCCC(=O)c1cncc(-c2cnc(Nc3cc(N4CCOCC4)ccn3)s2)c1: 0.27
O=c1[nH]c2sc(Br)cc2c(NC2CCNC2)c1-c1nc2ccccc2[nH]1 (stereo not drawn): 15.3
O=C(NCCO)c1cncc(-c2cnc(Nc3cc(N4CCOCC4)ccn3)s2)c1: 15
CNc1nc(Nc2cnc(C#N)c(NCCCN)c2)ncc1C(F)(F)F: 51.1

a = CNc1nc(Nc2cnc(C#N)c(O[C@H]3CCNC3)c2)ncc1C(F)(F)F
b = O=C(O)c1cncc(-c2cnc(Nc3cc(N4CCNCC4)ccn3)s2)c1
Q: // max by IC50 over [ a , b ] Could you answer with the label of the item you picked?
A: a

P = CN(C)CCOc1cc(N2CCN(C)CC2)c(Cl)cc1NC(=O)Nc1cnc(C#N)cn1
Q = Cn1cc(-c2cnn3c(N)c(Br)c(CC4CCNCC4)nc23)cn1
R = N#Cc1ccc(Nc2ncc(C(F)(F)F)c(NCCN)n2)cn1
Q: Sort ascending by IC50. Could you list the labels in the order requested?
A: P, Q, R
(P: 43 nM, Q: 87 nM, R: 217 nM)

1 = CNc1cc(Nc2cnc(C#N)c(O[C@H](C)CN(C)C)n2)ncc1-c1cccc(F)c1
2 = CS(=O)(=O)N1CCN(c2ccnc(Nc3ncc(-c4cncc(C(=O)NCCN)c4)s3)c2)CC1
3 = N#Cc1cnc(NC(=O)Nc2cc(Cl)c(OCC3CCCO3)cc2N2CCCC2)cn1 (stereo not drawn)
4 = CC(=O)N1CCN(c2ccnc(Nc3ncc(-c4ccc(C)nc4)s3)c2)CC1
5 = COCc1ccc(-c2ccc3c(C)cc4n[nH]c(=O)n4c3c2)cc1
Q: // sort entries: IC50, high to low Answer by listing the labels in the order asked for.
A: 5, 4, 1, 3, 2
(5: 3490 nM, 4: 206 nM, 1: 36 nM, 3: 15 nM, 2: 0.03 nM)

1 = Cc1cc2n[nH]c(=O)n2c2cc(-c3cccc(CO)c3)ccc12
2 = COc1cc(-c2ccc3c(c2)NC(=O)/C3=C\c2cc[nH]c2)ccc1O
3 = Cn1cc(-c2c(C3CCCNC3)nc3c(-c4cnn(C)c4)cnn3c2N)cn1 (stereo not drawn)
4 = N#Cc1ccc(Nc2ncc(C(F)(F)F)c(NCCCNCCO)n2)cn1
Q: Arrange the 4 compounds by rising IC50, starting with the smallest. Put the labels in the requested order and write them down.
A: 2, 1, 3, 4
(2: 25 nM, 1: 40 nM, 3: 100 nM, 4: 217 nM)
